Exercise: for every item that follows, state its recorded IC50.
- ASSAY EXPLANATION: Inhibition of bovine topoisomerase I, using cleavable complex assay.

Could you tell me IC50 for each of these compounds? They are listed below.
1. CCC1(O)C(=O)OCc2c1cc1n(c2=O)C/C(=C2\C(=O)Nc3ccc(Cl)cc32)C1=O (stereo not drawn)
2. CC[C@]1(O)C(=O)OCc2c1cc1n(c2=O)C/C(=C2\C(=O)Nc3ccccc32)C1=O
3. CC[C@]1(O)C(=O)OCc2c1cc1n(c2=O)C/C(=C2\C(=O)Nc3ccc(F)cc32)C1=O

["> 100 µM", "4 µM", "1.1 µM"]

---

- ASSAY EXPLANATION: Inhibition of bovine topoisomerase I, using cleavable complex assay.
ASSAY READOUT: IC50

> print(dat)
                                   compound  assay.readout  reported
1  CC[C@]1(O)C(=O)OCc2c1cc1n(c2=O)C/C(=C2\C(=O)Nc3cc(F)c(F)cc32)C1=O           IC50    1.3 µM
2  CC[C@]1(O)C(=O)OCc2c1cc1n(c2=O)C/C(=C2\C(=O)Nc3cc(SC)ccc32)C1=O           IC50  > 100 µM
3  CCC1(O)C(=O)OCc2c1cc1n(c2=O)C/C(=C2\C(=O)Nc3cc(OC)ccc32)C1=O (stereo not drawn)           IC50  > 100 µM
4  CCC1(O)C(=O)OCc2c1cc1n(c2=O)C/C(=C2\C(=O)Nc3c2cc(F)c(F)c3F)C1=O (stereo not drawn)           IC50  > 100 µM
5  CCC1(O)C(=O)OCc2c1cc1n(c2=O)C/C(=C2\C(=O)Nc3ccc(F)cc32)C1=O (stereo not drawn)           IC50    1.2 µM
6  CCC1(O)C(=O)OCc2c1cc1n(c2=O)C/C(=C2\C(=O)N(C)c3ccccc32)C1=O (stereo not drawn)           IC50  > 100 µM
7  CC[C@]1(O)C(=O)OCc2c1cc1n(c2=O)C/C(=C2\C(=O)Nc3cc(OC(F)(F)F)ccc32)C1=O           IC50  > 100 µM

Attention now turns to another entry.
State the recorded IC50 for this entry: "CC[C@@]1(O)C(=O)OCc2c1cc1n(c2=O)C/C(=C2\C(=O)Nc3ccc(F)cc32)C1=O" > 100 µM

---

- ASSAY EXPLANATION: Inhibition of bovine topoisomerase I, using cleavable complex assay.
ASSAY READOUT: IC50

Some compounds with known IC50 results, for comparison:
> print(dat)
                                   molecule  reported
1  CC[C@]1(O)C(=O)OCc2c1cc1n(c2=O)C/C(=C2\C(=O)Nc3c2cc(C)cc3[N+](=O)[O-])C1=O  > 100 µM
2  CC[C@]1(O)C(=O)OCc2c1cc1n(c2=O)C/C(=C2\C(=O)Nc3c(C)cccc32)C1=O  > 100 µM

Need IC50 of "CC[C@]1(O)C(=O)OCc2c1cc1n(c2=O)C/C(=C2\C(=O)Nc3c(Cl)cccc32)C1=O" , thanks. > 100 µM
